Data provenance is patent US20120040941A1.

- Method Description: Clinical Phase II study: pharmacokinetics, plasma level after inhalation
- Type: in vivo, human
- Conditions Used: subjects receiving the dose of 5 micrograms by inhalation
Quantity Name: plasma level

Asked: I have this compound here, `O=c1ccc2c([C@@H](O)CNCCCCCCOCC(F)(F)c3ccccc3)ccc(O)c2[nH]1` , and I need its recorded plasma level.
Given back: < 2.5 pg/mL
